Assay Text: qHTS for Inhibitors of Plasmodium falciparum (7G8) proliferation (AID 504316); also: nearly all actives have a fitted effect of over 65% in size
Condition Info: P. falciparum 7G8 in erythrocytes, SYBR Green DNA, 72 h; series mostly up to 6.7 µM
Results filed as inconclusive are left out. Active and inactive are the calls of the source. Calls follow the shape of the dose curve; as a rule, active = well fitted inhibition curve with a large enough effect; inconclusive = small, poorly fitted or top-dose-only effect; inactive = flat fitted curve, though single readings scatter.
Hi there, use one of these labels in your reply, thanks! active, inactive

Dear all, I need the recorded test outcome for C[C@H]1Cc2c(-c3ccccc3)nc3c(c2CO1)CN(S(=O)(=O)c1ccc(Cl)c2nonc12)CC3 , thank you.
inactive

Outcome? C#CCCCON=C1C[C@@H](O)[C@H](O)[C@H]2[C@@H]3C(=O)N(C[C@@H]4CCCO4)C(=O)[C@@H]3CC[C@H]12
inactive

What was the test verdict on COCCN1C(=O)N[C@@H](CCc2ccccc2)[C@@H](C(=O)OC)[C@H]1C ?
inactive
